Measured mass density of individual entries
Assay method text: mn = molality of the nth substance listed, in mol/kg
Protocol conditions: 303.15 K; 84.51 kPa; Liquid; Vibrating tube method; m1 = 0.035
Write the value in kg/m3 as a bare number.

[[record]]
molecule = "[Cl][Fe]([Cl])[Cl] [ferric chloride] + O"
endpoint = "mass density"
numeric_value = 1000.46

[[record]]
molecule = "O=C([O-])[O-].[Na+].[Na+] [sodium carbonate] + O"
endpoint = "mass density"
numeric_value = 999.439

[[record]]
molecule = "O=S(=O)([O-])[O-].[Na+].[Na+] [sodium sulfate] + O"
endpoint = "mass density"
numeric_value = 1000.09


Please fill in: mass density reported for Cl.N [ammonium chloride (NH4Cl)] + O = 996.243

Please fill in: mass density reported for O=[N+]([O-])[O-].[Na+] [sodium nitrate] + O = 997.592

Please fill in: mass density reported for [Cl-].[Cl-].[Mg+2] [magnesium chloride] + O = 998.899

Please fill in: mass density reported for [Cl-].[K+] [potassium chloride] + O = 997.288

Please fill in: mass density reported for [Cl-].[Na+] [sodium chloride] + O = 997.046

Please fill in: mass density reported for C[N+](C)(C)C.[Cl-] [tetramethylammonium chloride] + O = 995.716

Please fill in: mass density reported for O=C([O-])CC(O)(CC(=O)[O-])C(=O)[O-].[Na+].[Na+].[Na+] [trisodium citrate] + O = 1002.08

---

Assay method text: mn = molality of the nth substance listed, in mol/kg
Protocol conditions: 313.15 K; 84.51 kPa; Liquid; Vibrating tube method; m1 = 0.035
Measured mass density of individual entries
Write the value in kg/m3 as a bare number.

Please fill in: mass density reported for [Cl][Fe]([Cl])[Cl] [ferric chloride] + O = 997.003

---

Assay method text: mn = molality of the nth substance listed, in mol/kg
Protocol conditions: 293.15 K; 84.51 kPa; Liquid; Frequency=3 MHz; Sing-around technique in a fixed-path interferometer; m1 = 0.035
Endpoint: speed of sound (m/s)
Write the value in m/s as a bare number.

Please review the following examples before continuing.
[[record]]
molecule = "[Cl-].[Na+] [sodium chloride] + O"
endpoint = "speed of sound"
numeric_value = 1484.9

[[record]]
molecule = "O=S(=O)([O-])[O-].[Na+].[Na+] [sodium sulfate] + O"
endpoint = "speed of sound"
numeric_value = 1488.6

[[record]]
molecule = "[Cl][Fe]([Cl])[Cl] [ferric chloride] + O"
endpoint = "speed of sound"
numeric_value = 1486.8

[[record]]
molecule = "[Cl-].[Cl-].[Mg+2] [magnesium chloride] + O"
endpoint = "speed of sound"
numeric_value = 1487.1

[[record]]
molecule = "O=[N+]([O-])[O-].[Na+] [sodium nitrate] + O"
endpoint = "speed of sound"
numeric_value = 1484.2


Next molecule, please.
Please fill in: speed of sound reported for C[N+](C)(C)C.[Cl-] [tetramethylammonium chloride] + O = 1486.1

---

Assay method text: mn = molality of the nth substance listed, in mol/kg
Protocol conditions: 313.15 K; 84.51 kPa; Liquid; Vibrating tube method; m1 = 0.035
Numbers after ± are expanded uncertainties.
Endpoint: mass density
Kindly write the number and append the unit.

[[record]]
compound = "O=C([O-])CC(O)(CC(=O)[O-])C(=O)[O-].[Na+].[Na+].[Na+] [trisodium citrate] + O"
endpoint = "mass density"
result = "998.572 ± 0.26 kg/m3"

[[record]]
compound = "O=C([O-])[O-].[Na+].[Na+] [sodium carbonate] + O"
endpoint = "mass density"
result = "995.95 ± 0.17 kg/m3"

[[record]]
compound = "O=S(=O)([O-])[O-].[Na+].[Na+] [sodium sulfate] + O"
endpoint = "mass density"
result = "996.589 ± 0.26 kg/m3"

[[record]]
compound = "C[N+](C)(C)C.[Cl-] [tetramethylammonium chloride] + O"
endpoint = "mass density"
result = "992.272 ± 0.42 kg/m3"


Next compound, please.
Please fill in: mass density reported for [Cl-].[Cl-].[Mg+2] [magnesium chloride] + O = 995.455 ± 0.26 kg/m3

---

Assay method text: mn = molality of the nth substance listed, in mol/kg
Protocol conditions: 293.15 K; 84.51 kPa; Liquid; Frequency=3 MHz; Sing-around technique in a fixed-path interferometer; m1 = 0.035
Endpoint: speed of sound (m/s)
Write the value in m/s as a bare number.

Please review the following examples before continuing.
[[record]]
compound = "Cl.N [ammonium chloride (NH4Cl)] + O"
endpoint = "speed of sound"
numeric_value = 1484.2

[[record]]
compound = "O=C([O-])[O-].[Na+].[Na+] [sodium carbonate] + O"
endpoint = "speed of sound"
numeric_value = 1489.1

[[record]]
compound = "O=C([O-])CC(O)(CC(=O)[O-])C(=O)[O-].[Na+].[Na+].[Na+] [trisodium citrate] + O"
endpoint = "speed of sound"
numeric_value = 1490.6


Next compound, please.
Please fill in: speed of sound reported for [Cl-].[K+] [potassium chloride] + O = 1484.5

---

Measured speed of sound of individual entries
Assay method text: mn = molality of the nth substance listed, in mol/kg
Protocol conditions: 303.15 K; 84.51 kPa; Liquid; Frequency=3 MHz; Sing-around technique in a fixed-path interferometer; m1 = 0.035
Write the value in m/s as a bare number.

[[record]]
molecule = "O=S(=O)([O-])[O-].[Na+].[Na+] [sodium sulfate] + O"
units_label = "m/s"
numeric_value = 1514.8


Please fill in: speed of sound reported for O=C([O-])[O-].[Na+].[Na+] [sodium carbonate] + O = 1515.2

Please fill in: speed of sound reported for [Cl-].[K+] [potassium chloride] + O = 1510.9

Please fill in: speed of sound reported for [Cl-].[Cl-].[Mg+2] [magnesium chloride] + O = 1513.5

Please fill in: speed of sound reported for C[N+](C)(C)C.[Cl-] [tetramethylammonium chloride] + O = 1512.3

---

Assay method text: mn = molality of the nth substance listed, in mol/kg
Protocol conditions: 288.15 K; 84.51 kPa; Liquid; Frequency=3 MHz; Sing-around technique in a fixed-path interferometer; m1 = 0.035
Measured speed of sound of individual entries
Write the value in m/s as a bare number.

Please review the following examples before continuing.
[[record]]
molecule = "[Cl-].[Na+] [sodium chloride] + O"
numeric_value = 1468.8

[[record]]
molecule = "[Cl][Fe]([Cl])[Cl] [ferric chloride] + O"
numeric_value = 1470.9

[[record]]
molecule = "O=C([O-])[O-].[Na+].[Na+] [sodium carbonate] + O"
numeric_value = 1473.1

[[record]]
molecule = "[Cl-].[K+] [potassium chloride] + O"
numeric_value = 1468.5


Please fill in: speed of sound reported for O=S(=O)([O-])[O-].[Na+].[Na+] [sodium sulfate] + O = 1472.6

---

Measured mass density of individual entries
Assay method text: mn = molality of the nth substance listed, in mol/kg
Protocol conditions: 313.15 K; 84.51 kPa; Liquid; Vibrating tube method; m1 = 0.035
Write the value in kg/m3 as a bare number.

[[record]]
molecule = "[Cl-].[Na+] [sodium chloride] + O"
endpoint = "mass density"
numeric_value = 993.592

[[record]]
molecule = "O=[N+]([O-])[O-].[Na+] [sodium nitrate] + O"
endpoint = "mass density"
numeric_value = 994.12


Please fill in: mass density reported for Cl.N [ammonium chloride (NH4Cl)] + O = 992.807

Please fill in: mass density reported for [Cl-].[K+] [potassium chloride] + O = 993.836

---

Assay method text: mn = molality of the nth substance listed, in mol/kg
Protocol conditions: 303.15 K; 84.51 kPa; Liquid; Frequency=3 MHz; Sing-around technique in a fixed-path interferometer; m1 = 0.035
Measured speed of sound of individual entries
Write the value in m/s as a bare number.

Please review the following examples before continuing.
[[record]]
compound = "[Cl-].[Na+] [sodium chloride] + O"
numeric_value = 1511.3

[[record]]
compound = "Cl.N [ammonium chloride (NH4Cl)] + O"
numeric_value = 1510.7

[[record]]
compound = "O=[N+]([O-])[O-].[Na+] [sodium nitrate] + O"
numeric_value = 1510.5


Please fill in: speed of sound reported for [Cl][Fe]([Cl])[Cl] [ferric chloride] + O = 1513

Please fill in: speed of sound reported for O=C([O-])CC(O)(CC(=O)[O-])C(=O)[O-].[Na+].[Na+].[Na+] [trisodium citrate] + O = 1516.7
